Molecular target: GPCR GPR40 (Homo sapiens, UniProt O14842)
Construct: expressed in transfected cells; host or cells: HEK293
Sequence (O14842 whole entry): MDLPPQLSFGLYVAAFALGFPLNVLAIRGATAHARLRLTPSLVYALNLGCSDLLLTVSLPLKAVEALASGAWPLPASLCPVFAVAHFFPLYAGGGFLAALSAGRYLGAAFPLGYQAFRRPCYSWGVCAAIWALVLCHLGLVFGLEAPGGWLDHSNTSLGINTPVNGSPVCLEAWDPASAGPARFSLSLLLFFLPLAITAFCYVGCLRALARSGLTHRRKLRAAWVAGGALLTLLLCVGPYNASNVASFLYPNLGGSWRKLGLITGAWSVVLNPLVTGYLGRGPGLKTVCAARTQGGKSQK
Assay: In vitro FLIPR assay with recombinant cells which express the GPCR GPR40 (intracellular Ca2+ change)
Type: cell-based
Details: 100 μM test substance; recombinant HEK293 cells expressing GPR40; relative to control (0%: no test substance; 100%: 10 μM reference agonist linoleic acid)
Description: In vitro FLIPR assay with recombinant cells which express the GPCR GPR40 Function-testing assays were carried out by means of the FLIPR technique (“Fluorescence Imaging Plate Reader”, Molecular Devices Corp.). For this purpose, agonist-induced changes in the intracellular concentration of Ca^2+ in recombinant HEK293 cells which expressed the GPCR GPR40 were determined. For the investigations, cells were seeded in 96-well microtiter plates (60 000 cells/well) and allowed to grow overnight. […]
ENDPOINT LABEL: % activation @ 100 μM (%)
Numbers only, in %.

Look over these answered cases.
O=C(O)C(F)(F)F.O=C(O)CCCCCCNc1ncc(-c2ccccc2)c(-c2ccccc2)n1 [Example 4]
94
O=C(O)C1CCC(CNc2ncc(-c3ccccc3)c(-c3ccccc3)n2)CC1 (stereo not shown) [Example 1]
79
O=C(O)C(F)(F)F.O=C(O)CCCCCCCNc1ncc(-c2ccccc2)c(-c2ccccc2)n1 [Example 3]
104

Entry O=C(O)C(F)(F)F.O=C(O)CCCCCNc1ncc(-c2ccccc2)c(-c2ccccc2)n1 [Example 5] ; % activation @ 100 μM = 73
